procedureText: In vivo pharmacokinetics in rats
conditionsUsed: male, Wistar, rat, plasma, iv, i.v. bolus dosing, read-out: t1/2: terminal half-life (converted)
parameterMeasured: half-life (h)

1 = CS(=N)(=O)Cc1cc2nc(c1)OCCCOc1cc(F)ccc1-c1cc(ncc1F)N2 (racemic)
2 = CS(=N)(=O)Cc1cc2cc(c1)OCCCOc1cc(F)ccc1-c1nc(ncc1F)N2 (racemic)
Response body: label of entry with the larger half-life; valid values 1 , 2 . Write down the label attached to your selection.
1
(1: 7.2 h, 2: 4.9 h)

---

assayedSystem: CDK9/CycT1 (Homo sapiens)
Construct: Recombinant full-length His-tagged human CDK9 and CycT1; His; purchased Invitrogen PV4131; host or cells: insect cells
Sequence (P50750 whole entry): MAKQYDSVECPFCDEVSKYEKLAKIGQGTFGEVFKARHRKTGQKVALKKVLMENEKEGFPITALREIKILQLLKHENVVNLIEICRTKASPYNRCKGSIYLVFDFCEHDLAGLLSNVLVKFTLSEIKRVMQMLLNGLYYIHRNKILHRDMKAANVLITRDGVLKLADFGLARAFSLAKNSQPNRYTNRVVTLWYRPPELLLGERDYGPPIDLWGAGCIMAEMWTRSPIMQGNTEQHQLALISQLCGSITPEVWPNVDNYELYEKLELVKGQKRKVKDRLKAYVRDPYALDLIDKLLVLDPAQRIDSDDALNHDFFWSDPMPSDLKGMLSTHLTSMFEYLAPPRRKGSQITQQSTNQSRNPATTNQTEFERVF
Sequence (O60563 whole entry partner): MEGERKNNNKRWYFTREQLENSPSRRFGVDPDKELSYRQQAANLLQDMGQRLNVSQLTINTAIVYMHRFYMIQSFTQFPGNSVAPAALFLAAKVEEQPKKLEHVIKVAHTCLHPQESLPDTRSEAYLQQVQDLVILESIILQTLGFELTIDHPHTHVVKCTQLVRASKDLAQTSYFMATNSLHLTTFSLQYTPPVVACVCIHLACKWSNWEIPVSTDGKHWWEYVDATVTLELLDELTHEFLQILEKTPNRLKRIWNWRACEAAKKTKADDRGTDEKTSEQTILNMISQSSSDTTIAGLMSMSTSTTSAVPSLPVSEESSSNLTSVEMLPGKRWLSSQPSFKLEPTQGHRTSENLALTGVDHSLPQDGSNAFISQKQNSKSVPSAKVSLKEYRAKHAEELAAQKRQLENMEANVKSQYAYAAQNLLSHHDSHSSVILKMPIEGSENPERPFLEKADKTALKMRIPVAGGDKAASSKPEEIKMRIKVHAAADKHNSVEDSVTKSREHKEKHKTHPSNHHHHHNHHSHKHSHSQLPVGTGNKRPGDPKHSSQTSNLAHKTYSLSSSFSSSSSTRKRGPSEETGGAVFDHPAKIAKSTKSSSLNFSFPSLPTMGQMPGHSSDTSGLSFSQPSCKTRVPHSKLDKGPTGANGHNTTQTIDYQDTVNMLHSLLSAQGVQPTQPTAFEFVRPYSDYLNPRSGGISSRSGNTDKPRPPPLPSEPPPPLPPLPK
procedureText: CDK9/CycT1 high ATP kinase assay (TR-FRET, Method 1b)
Format: biochemical
conditionsUsed: Methods 1b and 2b; minimal values where CDK9 IC50 is at the assay limit
parameterMeasured: Selectivity high ATP CDK9 over high ATP CDK2: IC50 (high ATP CDK2)/IC50 (high ATP CDK9)

Solved cases below.
INSERT INTO measurements (compound, val) VALUES
  ('CS(=N)(=O)Cc1cc2nc(c1)OCCCOc1cc(F)ccc1-c1cc(ncc1F)N2 (single isomer, unassigned; enantiomer 2) [Example 7]', 19.5),
  ('CCNC(=O)N=S(C)(=O)Cc1cc2nc(c1)OCCCOc1cc(F)ccc1-c1cc(ncc1F)N2 (racemic)', 13.5);

A = CC(=O)N=S(C)(=O)Cc1cc2nc(c1)OCCCOc1cc(F)ccc1-c1cc(ncc1F)N2 (racemic)
B = CS(=O)(Cc1cc2nc(c1)OCCCOc1cc(F)ccc1-c1cc(ncc1F)N2)=NC(=O)OCCCl (racemic)
C = CSCc1cc2nc(c1)OCCCCOc1cc(F)ccc1-c1cc(ncc1F)N2
D = C[S+]([O-])Cc1cc2nc(c1)OCCOc1cc(F)ccc1-c1cc(ncc1F)N2 (racemic)
Would you mind ranking these compounds by ascending Selectivity high ATP CDK9 over high ATP CDK2: IC50 (high ATP CDK2)/IC50 (high ATP CDK9)? In plain terms: list the labels in the order you were asked to.
B, A, C, D
(B: 12.7, A: 21.7, C: 75.7, D: 125.7)
